Target: EcCc Hfq (Escherichia coli / Caulobacter …, UniProt P0A6X3 1-67+B8GW92:71-82, internal_change)
Assay: EMSA; Hill n 1.8; EMSA: 34 mM Tris-HCl pH 7.5, 50 mM NaCl, 50 mM KCl, 50 mM NH4Cl, 11.4 mM EDTA, 12% glycerol, 30 C, 30 min, ~1 nM 32P-RNA, Kd in Hfq6; anisotropy: 10 mM Tris-HCl
Conditions: protein: recombinant; tags: untagged; chain copies: 6; label: 32P; stem-loops
property: Kd (nM)
Return type: number; implicit unit nM.

Prompt: Check the records and state Kd for R133 (structured_RNA) RNA: GGAGCCCUUUCGGGCGUUUCCUCCCAAUGACUCGGCCGCCCUCUUCUCCUGGAGGGCGGCCGUUCUUUU
Response: 232
